Reference for the values: paper PMC4939597

Biological target: human RXFP3 (Homo sapiens)
Construct: expressed in transfected cells; host or cells: HEK293T
Sequence (Q9NSD7 1-469): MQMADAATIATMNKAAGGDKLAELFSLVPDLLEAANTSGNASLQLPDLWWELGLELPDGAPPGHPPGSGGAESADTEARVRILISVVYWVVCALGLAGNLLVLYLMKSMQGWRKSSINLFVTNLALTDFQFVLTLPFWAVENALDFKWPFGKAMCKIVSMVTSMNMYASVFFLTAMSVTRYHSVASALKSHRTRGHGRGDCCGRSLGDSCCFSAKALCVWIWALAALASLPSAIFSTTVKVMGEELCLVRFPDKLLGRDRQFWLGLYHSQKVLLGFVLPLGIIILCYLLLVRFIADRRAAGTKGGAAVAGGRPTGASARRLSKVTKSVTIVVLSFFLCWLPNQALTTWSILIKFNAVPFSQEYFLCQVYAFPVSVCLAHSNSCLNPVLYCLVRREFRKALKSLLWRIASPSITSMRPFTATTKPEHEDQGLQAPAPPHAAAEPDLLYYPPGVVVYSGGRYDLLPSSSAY
Experiment: Receptor binding assay, competition with NanoLuc-conjugated R3/I5 tracer
Conditions: HEK293T cells transiently overexpressing human RXFP3; 0.5 nM NanoLuc-conjugated R3/I5 tracer; 21 °C, 2 h; mean ± SE, n = 3; SEM
No end group written: not given here.
Provide the reported pIC50 RXFP3 of each item.

Query (substance): insulin-like peptide 5 (Insulin-like peptide INSL5 B … KESVRLCGLEYIRTVIYICASSRW; Insulin-like peptide INSL5 A … QDLQTLCCTDGCSMTDLSALC; UniProt Q9Y5Q6 23-46; Q9Y5Q6 115-135, looked up) [recombinant mature two-chain human INSL5, cognate agonist of RXFP4, reference compound] ; field requested: pIC50 RXFP3 7.26 ± 0.05

Query (substance): [L(B9)R]INSL5: recombinant mature two-chain INSL5 mutant (Insulin-like peptide INSL5 B … KESVRLCGREYIRTVIYICASSRW; Insulin-like peptide INSL5 A … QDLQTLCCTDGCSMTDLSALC; ends and bridges not checked; cysteine pairing not given here; UniProt Q9Y5Q6 23-46; Q9Y5Q6 115-135, looked up, variant L9R) ; field requested: pIC50 RXFP3 7.87 ± 0.04
